System: RPMI-8226
Assay: NCI tumour cell line growth inhibition, 48 h
Activity calls are given as the source filed them. No stated cut-off is given here; in the data, active = GI50 up to about 1.1 µM and inactive = higher.
Write down one outcome, taken from Y for active, N for inactive

Query block: Please indicate how the test categorized COc1c2c(c(O)c3c4c(c(C)cc13)C1OC3(C(OC)OC5CC(C)(O)C(OC6CC(C)(O)C(O)C(C)O6)C(C)O5)OC1C(OC)(O4)C31CO1)C(=O)C(O)CC2OC1CC(C)(O)C(OC(C)=O)C(C)O1 (centres undefined) .
Result block: Y

Query block: Please indicate how the test categorized `CC(=O)c1sc(=N)n(-c2c(C)cccc2C)c1C` .
Result block: N

Query block: Please indicate how the test categorized COc1cc(C(C)c2cc3c(cc2OCCCCCOc2cc4c(cc2C(C)c2cc(OC)c(OC)c(OC)c2)OCO4)OCO3)cc(OC)c1OC (centres undefined) .
Result block: N

Query block: Please indicate how the test categorized `O=C(NC/C(Cl)=C/Cl)Nc1cccc2c1CCCC2` .
Result block: N
